system_under_test: 72 kDa type IV collagenase (Homo sapiens) (UniProt P08253)
Sequence (P08253 whole entry, looked up): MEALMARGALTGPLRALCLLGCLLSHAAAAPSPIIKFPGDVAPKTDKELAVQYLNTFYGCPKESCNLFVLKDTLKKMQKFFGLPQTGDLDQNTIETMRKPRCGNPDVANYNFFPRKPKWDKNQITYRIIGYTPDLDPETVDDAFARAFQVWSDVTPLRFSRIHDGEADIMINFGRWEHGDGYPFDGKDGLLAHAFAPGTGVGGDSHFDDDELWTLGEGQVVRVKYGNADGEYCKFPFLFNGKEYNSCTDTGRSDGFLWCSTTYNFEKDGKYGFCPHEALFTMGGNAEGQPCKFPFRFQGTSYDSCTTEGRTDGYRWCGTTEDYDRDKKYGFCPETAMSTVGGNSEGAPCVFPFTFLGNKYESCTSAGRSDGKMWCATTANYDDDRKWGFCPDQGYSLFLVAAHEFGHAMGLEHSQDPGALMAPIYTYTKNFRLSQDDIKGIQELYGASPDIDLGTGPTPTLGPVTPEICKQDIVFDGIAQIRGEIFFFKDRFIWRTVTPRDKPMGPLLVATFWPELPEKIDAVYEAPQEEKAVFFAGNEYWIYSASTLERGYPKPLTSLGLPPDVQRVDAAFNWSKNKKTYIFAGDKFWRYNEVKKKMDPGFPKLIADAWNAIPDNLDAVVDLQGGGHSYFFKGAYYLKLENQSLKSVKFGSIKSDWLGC
protocol: MMP-2 inhibition counter-screen for RPN11 hits, SAR follow-up, counter-screen for RPN11 inhibitor project, biochemical, fluorescence (AID 686932)
condition_parameters: recombinant MMP-2, FRET peptide cleavage fluorescence
Calls of active or inactive are those of the source.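 How the source made its calls: active means IC50 against MMP-2 at or below 100 µM; inactive means the rest.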
Hi! Could you answer with just one of these? class 1 = active, class 0 = inactive

A selection of reference data follows.
| smiles_record | category_label |
| --- | --- |
| COC(=O)[C@H](CO)NC(=O)c1cnc2c(SSc3cccc4cc(C(=O)N[C@@H](CO)C(=O)OC)cnc34)cccc2c1 | class 0 |
| O=C(Sc1cccc2cccnc12)c1ccc([N+](=O)[O-])cc1 | class 0 |
| O=C(Sc1cccc2cccnc12)c1ccc(F)cc1 | class 0 |
| O=C(Sc1cccc2cccnc12)c1ccccc1 | class 1 |
| Cc1cccc(C(=O)Sc2cccc3cccnc23)c1 | class 1 |

Enquiry: Just curious, what result did COc1ccccc1C(=O)Sc1cccc2cccnc12 get here?
Return: class 0

Enquiry: Just curious, what result did N#Cc1cccc(C(=O)Sc2cccc3cccnc23)c1 get here?
Return: class 0

Enquiry: Just curious, what result did COC(=O)C[C@H](NC(=O)c1cnc2c(SSc3cccc4cc(C(=O)N[C@@H](CC(=O)OC)C(=O)OC)cnc34)cccc2c1)C(=O)OC get here?
Return: class 0

Enquiry: Just curious, what result did O=C(Sc1cccc2cccnc12)c1cccc2ccccc12 get here?
Return: class 1

Enquiry: Just curious, what result did CC(C)(C)OC(=O)CCNC(=O)c1cnc2c(SSc3cccc4cc(C(=O)NCCC(=O)OC(C)(C)C)cnc34)cccc2c1 get here?
Return: class 0

Enquiry: Just curious, what result did CCCc1ccc(C(=O)Sc2cccc3cccnc23)cc1 get here?
Return: class 1

====

system_under_test: 72 kDa type IV collagenase (Homo sapiens)
protocol: MMP-2 inhibition counter-screen for RPN11 hits, SAR follow-up, counter-screen for RPN11 inhibitor project, biochemical, fluorescence (AID 686932)
condition_parameters: recombinant MMP-2, FRET peptide cleavage fluorescence
Calls of active or inactive are those of the source.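 Rule for the calls: active = IC50 against MMP-2 at or below 100 µM; inactive = the rest.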
Hi! Could you answer with just one of these? active, inactive

| smiles_record | category_label |
| --- | --- |
| O=C(O)c1cnc2c(SSc3cccc4cc(C(=O)O)cnc34)cccc2c1 | inactive |

Enquiry: Just curious, what result did O=C(Sc1cccc2cccnc12)c1ccccc1Cl get here?
Return: inactive

Enquiry: Just curious, what result did O=C(Sc1cccc2cccnc12)c1c(Cl)cccc1Cl get here?
Return: active

====

system_under_test: 72 kDa type IV collagenase (Homo sapiens) (UniProt P08253)
protocol: MMP-2 inhibition counter-screen for RPN11 hits, SAR follow-up, counter-screen for RPN11 inhibitor project, biochemical, fluorescence (AID 686932)
condition_parameters: recombinant MMP-2, FRET peptide cleavage fluorescence
The source made the active and inactive calls.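 Rule for the calls: active = IC50 against MMP-2 at or below 100 µM; inactive = the rest.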
Hi! Could you answer with just one of these? true (1) for active, false (0) for inactive

| smiles_record | category_label |
| --- | --- |
| O=C(Sc1cccc2cccnc12)c1cccc(C(F)(F)F)c1 | false (0) |
| O=C(Sc1cccc2cccnc12)c1ccc2c(c1)OCO2 | false (0) |
| CC[C@@H](C)[C@H](NC(=O)c1cnc2c(SSc3cccc4cc(C(=O)N[C@H](C(=O)O)[C@H](C)CC)cnc34)cccc2c1)C(=O)O | true (1) |

Enquiry: Just curious, what result did O=C(Sc1cccc2cccnc12)c1ccccc1F get here?
Return: false (0)

Enquiry: Just curious, what result did O=C(Sc1cccc2cccnc12)c1ccccc1Br get here?
Return: false (0)

Enquiry: Just curious, what result did O=C(Sc1cccc2cccnc12)c1ccc(F)c(F)c1 get here?
Return: false (0)

Enquiry: Just curious, what result did COc1cccc(C(=O)Sc2cccc3cccnc23)c1 get here?
Return: false (0)

Enquiry: Just curious, what result did O=C(Sc1cccc2cccnc12)c1ccccc1[N+](=O)[O-] get here?
Return: false (0)
